Recorded pest or weed control at 62 g/ha by entry
# Test system: common ragweed (Ambrosia elatior)
# test_protocol: Test C pre/postemergence
# Assay type: in vivo
# assay_context: Ambrosia artemisiifolia, pre-emergence, Preemergence, 62 g ai/ha; scale 0 to 100, 0 no effect, 100 complete control; read-out: Plant response rating, Ragweed

>  <record_smiles>
COC(=O)c1nc(C2CC2)nc(N)c1Br

>  <subject_of_test>
common ragweed (Ambrosia elatior)

>  <pest or weed control at 62 g/ha [%]>
0

$$$$
>  <record_smiles>
Nc1nc(C2CC2)nc(C(=O)O)c1Br

>  <subject_of_test>
common ragweed (Ambrosia elatior)

>  <pest or weed control at 62 g/ha [%]>
100

$$$$
>  <record_smiles>
CCOC(=O)c1nc(C2CC2)nc(N)c1F

>  <subject_of_test>
common ragweed (Ambrosia elatior)

>  <pest or weed control at 62 g/ha [%]>
85

$$$$
>  <record_smiles>
CCOC(=O)c1nc(C2CC2)nc(N)c1Cl

>  <subject_of_test>
common ragweed (Ambrosia elatior)

>  <pest or weed control at 62 g/ha [%]>
100

$$$$
>  <record_smiles>
Nc1nc(-c2ccc(Br)cc2)nc(C(=O)O)c1Cl

>  <subject_of_test>
common ragweed (Ambrosia elatior)

>  <pest or weed control at 62 g/ha [%]>
100

$$$$
>  <record_smiles>
CCOC(=O)c1nc(C2CC2)nc(N)c1Br

>  <subject_of_test>
common ragweed (Ambrosia elatior)

>  <pest or weed control at 62 g/ha [%]>
95

$$$$
>  <record_smiles>
Nc1nc(C2CC2)nc(C(=O)OCc2ccccc2)c1Cl

>  <subject_of_test>
common ragweed (Ambrosia elatior)

>  <pest or weed control at 62 g/ha [%]>
80

$$$$

----------
# Tested on: rice flatsedge (Cyperus iria)
# test_protocol: Test E flooded paddy water application
# Assay type: in vivo
# assay_context: 32 g ai/ha; Flood; 21 days; scale 0 to 100 (0 no effect, 100 complete control)

>  <compound>
CCOC(=O)c1nc(-c2ccc(C)c(C)c2)nc(N)c1Cl [Compound 71]

>  <Flatsedge, Rice plant response rating>
0

$$$$
>  <compound>
CCOC(=O)c1nc(-c2ccc(Cl)cc2Cl)nc(N)c1Br [Compound 67]

>  <Flatsedge, Rice plant response rating>
0

$$$$
>  <compound>
CCOC(=O)c1nc(-c2ccc(Cl)c(Cl)c2)nc(N)c1Cl [Compound 73]

>  <Flatsedge, Rice plant response rating>
0

$$$$
>  <compound>
Nc1nc(-c2ccc(Cl)cc2)nc(C(=O)O)c1Br [Compound 88]

>  <Flatsedge, Rice plant response rating>
85

$$$$
>  <compound>
CCOC(=O)c1nc(-c2ccc(OC)cc2)nc(N)c1Cl [Compound 98]

>  <Flatsedge, Rice plant response rating>
80

$$$$
>  <compound>
CCOC(=O)c1nc(-c2ccc(F)cc2)nc(N)c1Br [Compound 63]

>  <Flatsedge, Rice plant response rating>
75

$$$$
>  <compound>
CCOC(=O)c1nc(-c2ccc(Cl)cc2Cl)nc(N)c1Cl [Compound 72]

>  <Flatsedge, Rice plant response rating>
100

$$$$
>  <compound>
CNc1nc(-c2ccc(Cl)cc2)nc(C(=O)OC)c1Cl [Compound 111]

>  <Flatsedge, Rice plant response rating>
0

$$$$
>  <compound>
CCOC(=O)c1nc(-c2ccc(C)cc2)nc(N)c1Cl [Compound 62]

>  <Flatsedge, Rice plant response rating>
0

$$$$
